test_protocol: Drug hydrolysis in phosphate buffer saline incubated for 500 hrs at pH 7.3 by RP18-HPLC analysis
Assay type: physicochemical
experimental_parameters: read-out: Drug degradation
test_readout: degraded at 500 h

INSERT INTO measurements (compound, test_readout, recorded_measurement) VALUES
  ('CCCCCCCCCCCCCCCCCCP(=O)(OCCCCCCCC)OP(=O)(O)OP(=O)(O)CO[C@H](C)Cn1cnc2c(N)ncnc21 (some centres not stated)', 'degraded at 500 h', '36%');

--- query ---
// query What value of degraded at 500 h has been recorded for this entry: CCCCCCCCCCCCCCCCCCP(=O)(OCCCC)OP(=O)(O)OP(=O)(O)CO[C@H](C)Cn1cnc2c(N)ncnc21 (some centres not stated)
// result 40%

---

test_protocol: Selectivity index, ratio of CC50 for cytotoxicity against human CEM cells to EC50 for antiviral activity against HIV-2 ROD infected in thymidine kinase deficient human CEM cells
Format: toxicity, cell-based
experimental_parameters: read-out: Ratio CC50/EC50
test_readout: selectivity ratio
Answer field: number only, no words.

INSERT INTO assay_data (compound, recorded_measurement) VALUES
  ('CCCCCCCCC(=O)Oc1ccc(COOP(=O)(O)OP(=O)(O)OP(=O)(O)CO[C@H](C)Cn2cnc3c(N)ncnc32)cc1', 87);

// query What value of selectivity ratio has been recorded for this entry: CCCCCCCCCCCCCCCCCCP(=O)(OCCCC)OP(=O)(O)CO[C@H](C)Cn1cnc2c(N)ncnc21 (some centres not stated)
// result 14000

// query What value of selectivity ratio has been recorded for this entry: CCCCCCCCCCCCCCCCCCOP(=O)(OCCCCCCCC)OP(=O)(O)OP(=O)(O)CO[C@H](C)Cn1cnc2c(N)ncnc21 (some centres not stated)
// result 447

---

test_protocol: Prodrug conversion of the compound in phosphate buffer saline assessed as (R)-9-(2-(phosphonomethoxy)propyl)adenine formation by measuring half life in presence of pig liver esterase at pH 7.3 by RP18-HPLC analysis
Format: ADME, Sus scrofa
Listed here: items and their measured t1/2.
Answer format: numeric, h implied, no suffix.

Guide cases for t1/2, answers given:
INSERT INTO assay_data (molecule, test_readout, display_unit, recorded_measurement) VALUES
  ('CCCCCCCCCCCCCCCCCCOP(=O)(OCc1ccc(OC(=O)CCCCCCCC)cc1)OP(=O)(O)OP(=O)(O)CO[C@H](C)Cn1cnc2c(N)ncnc21 (some centres undefined)', 't1/2', 'h', 2.15),
  ('CCCCCCCCCCCCCCCCCCOP(=O)(OCc1ccc(OC(=O)CCCC)cc1)OP(=O)(O)OP(=O)(O)CO[C@H](C)Cn1cnc2c(N)ncnc21 (some centres undefined)', 't1/2', 'h', 0.683);

--- query ---
// query What value of t1/2 has been recorded for this entry: CCCCCCCCC(=O)Oc1ccc(COOP(=O)(O)OP(=O)(O)OP(=O)(O)CO[C@H](C)Cn2cnc3c(N)ncnc32)cc1
// result 0.00267

---

Listed here: items and their measured half-life.
test_protocol: Half life of the compound in phosphate buffer saline in presence of pig liver esterase at pH 7.3 by RP18-HPLC analysis
Assay type: ADME, Sus scrofa

// query What value of half-life has been recorded for this entry: CCCCCCCCCCCCCCCCCCOP(=O)(OCCCC)OP(=O)(O)OP(=O)(O)CO[C@H](C)Cn1cnc2c(N)ncnc21 (some centres undefined)
// result > 100 h

// query What value of half-life has been recorded for this entry: CCCCCCCCCCCCCCCCCCP(=O)(OCCCC)OP(=O)(O)OP(=O)(O)CO[C@H](C)Cn1cnc2c(N)ncnc21 (some centres undefined)
// result > 100 h

// query What value of half-life has been recorded for this entry: CCCCCCCCCCCCOP(=O)(OCCCCCCCCCCCC)OP(=O)(O)OP(=O)(O)CO[C@H](C)Cn1cnc2c(N)ncnc21
// result > 100 h

// query What value of half-life has been recorded for this entry: CCCCCCCCCCCCCCCCCCP(=O)(OCCCC)OP(=O)(O)CO[C@H](C)Cn1cnc2c(N)ncnc21 (some centres undefined)
// result 24 h

---

test_protocol: Lipophilicity of the compound assessed as retention time by RP-HPLC analysis
Format: physicochemical
Classify by measured Retention_time: true (1) if it is equal to or exceeds 10 min, false (0) if it is smaller.

Look over these answered cases.
INSERT INTO measurements (compound, class_label) VALUES
  ('CCCCCCCCCCCCCCCCCCOP(=O)(OCc1ccc(OC(=O)CC)cc1)OP(=O)(O)OP(=O)(O)CO[C@H](C)Cn1cnc2c(N)ncnc21 (some centres not stated)', 'true (1)'),
  ('CCCCCCCCCCCCCCCCCCOP(=O)(O)OP(=O)(O)OP(=O)(O)CO[C@H](C)Cn1cnc2c(N)ncnc21', 'true (1)');

// query Say whether C[C@H](Cn1cnc2c(N)ncnc21)OCP(=O)(O)O [TENOFOVIR ANHYDROUS] shows Retention_time of 10 min or more.
// result false (0)

// query Say whether CCCCCCCCCCCCCCCCCCP(=O)(OCCCC)OP(=O)(O)OP(=O)(O)CO[C@H](C)Cn1cnc2c(N)ncnc21 (some centres not stated) shows Retention_time of 10 min or more.
// result true (1)

// query Say whether CCCCOP(=O)(OCCCC)OP(=O)(O)OP(=O)(O)CO[C@H](C)Cn1cnc2c(N)ncnc21 shows Retention_time of 10 min or more.
// result false (0)

// query Say whether CCCCCCCCCCCCCCCCCCOP(=O)(OCc1ccc(OC(=O)CCCC)cc1)OP(=O)(O)OP(=O)(O)CO[C@H](C)Cn1cnc2c(N)ncnc21 (some centres not stated) shows Retention_time of 10 min or more.
// result true (1)

// query Say whether CCCCCCCCCCCCOP(=O)(OCCCCCCCCCCCC)OP(=O)(O)OP(=O)(O)CO[C@H](C)Cn1cnc2c(N)ncnc21 shows Retention_time of 10 min or more.
// result true (1)

---

test_protocol: Half life of the compound in human CEM/0 cell extracts by RP18-HPLC analysis
Format: ADME, CCRF-CEM
test_readout: half-life (h)
Answer format: numeric, h implied, no suffix.

Guide cases for half-life, answers given:
INSERT INTO assay_data (molecule, display_unit, recorded_measurement) VALUES
  ('CCCCCCCCCCCCCCCCCCOP(=O)(OCc1ccc(OC(=O)CC)cc1)OP(=O)(O)OP(=O)(O)CO[C@H](C)Cn1cnc2c(N)ncnc21 (some centres not stated)', 'h', 2.6),
  ('CCCCCCCCC(=O)Oc1ccc(COOP(=O)(O)OP(=O)(O)OP(=O)(O)CO[C@H](C)Cn2cnc3c(N)ncnc32)cc1', 'h', 0.97);

// query What value of half-life has been recorded for this entry: CCCCCCCCCCCCCCCCCCOP(=O)(OCc1ccc(OC(=O)CCCCCC)cc1)OP(=O)(O)OP(=O)(O)CO[C@H](C)Cn1cnc2c(N)ncnc21 (some centres not stated)
// result 1.9

---

Test system: Human immunodeficiency virus 2
test_protocol: Antiviral activity against HIV-2 ROD infected in wild type human CEM/0 cells assessed as inhibition of virus-induced giant cell formation incubated for 4 to 5 days by light microscopy
Format: functional, organism-based
experimental_parameters: Human immunodeficiency virus 2, ROD, CCRF-CEM
Categorize each record by its EC50 using lowest (below 60 nM), middle (60 nM to below 600 nM), highest (600 nM or more)

Look over these answered cases.
INSERT INTO results (compound, tested_system, class_label) VALUES
  ('CCCCCCCCCCCOP(=O)(O)OP(=O)(O)OP(=O)(O)CO[C@H](C)Cn1cnc2c(N)ncnc21', 'Human immunodeficiency virus 2', 'highest'),
  ('C[C@H](Cn1cnc2c(N)ncnc21)OCP(=O)(O)O [TENOFOVIR ANHYDROUS]', 'Human immunodeficiency virus 2', 'highest'),
  ('CCCCCCCCCCCOP(=O)(OCc1ccc(OC(=O)CCCCCCCC)cc1)OP(=O)(O)OP(=O)(O)CO[C@H](C)Cn1cnc2c(N)ncnc21 (some centres undefined)', 'Human immunodeficiency virus 2', 'highest'),
  ('CCCCCCCCC(=O)Oc1ccc(COOP(=O)(O)OP(=O)(O)OP(=O)(O)CO[C@H](C)Cn2cnc3c(N)ncnc32)cc1', 'Human immunodeficiency virus 2', 'middle'),
  ('CCCCCCCCCCCCCCCCCCOP(=O)(OCCCCCCCC)OP(=O)(O)OP(=O)(O)CO[C@H](C)Cn1cnc2c(N)ncnc21 (some centres undefined)', 'Human immunodeficiency virus 2', 'lowest');

// query // return the class label for CCCCCCCCCCCCCCCCCCP(=O)(OCCCCCCCC)OP(=O)(O)OP(=O)(O)CO[C@H](C)Cn1cnc2c(N)ncnc21 (some centres undefined)
// result middle

// query // return the class label for CCCCCCCCCCCC(=O)Oc1ccc(COOP(=O)(O)OP(=O)(O)OP(=O)(O)CO[C@H](C)Cn2cnc3c(N)ncnc32)cc1
// result middle
